Values compiled from patent US20060293362A1.

Below: a set of entries, each annotated with reported IC50.
- system under test: PDE 4
- run description: Inhibition of phosphodiesterase 4 (SPA assay, enzyme preparation from human PMNLs)
- condition context: cytosolic PDE 4 fraction from human PMNLs; 0.5 μM [3H]-cAMP; 100 μM cGMP

smiles notation: Cc1ccc(Cn2cc(C(=O)C(=O)Nc3c(Cl)cncc3Cl)c3cccc(O)c32)cc1[N+](=O)[O-]
display unit: nM
IC50: 8
//
smiles notation: O=C(Nc1c(Cl)cncc1Cl)C(=O)c1cn(Cc2c(F)cccc2F)c2c(O)cccc12
display unit: nM
IC50: 2
//
smiles notation: O=C(Nc1c(Cl)c[n+]([O-])cc1Cl)C(=O)c1cn(Cc2ccc(Cl)cc2[N+](=O)[O-])c2c(O)cccc12
display unit: nM
IC50: 4
//
smiles notation: O=C(Nc1c(Cl)cncc1Cl)C(=O)c1cn(Cc2cccc([N+](=O)[O-])c2)c2c(O)cccc12
display unit: nM
IC50: 2
//
smiles notation: O=C(Nc1c(Cl)cncc1Cl)C(=O)c1cn(Cc2ccccc2Cl)c2c(O)cccc12
display unit: nM
IC50: 0.6
//
smiles notation: O=C(Nc1c(Cl)cncc1Cl)C(=O)c1cn(Cc2c(F)cccc2[N+](=O)[O-])c2c(O)cccc12
display unit: nM
IC50: 0.6
//
smiles notation: Cc1ccc([N+](=O)[O-])c(Cn2cc(C(=O)C(=O)Nc3c(Cl)cncc3Cl)c3cccc(O)c32)c1
display unit: nM
IC50: 38
//
smiles notation: Cc1c(Cn2cc(C(=O)C(=O)Nc3c(Cl)cncc3Cl)c3cccc(O)c32)cccc1[N+](=O)[O-]
display unit: nM
IC50: 2
//
smiles notation: O=C(Nc1c(Cl)cncc1Cl)C(=O)c1cn(Cc2ccc(Cl)cc2[N+](=O)[O-])c2c(O)cccc12
display unit: nM
IC50: 0.9
